Target: α2A receptor (Homo sapiens, UniProt P08913)
Construct: host or cells: LM(tk-) cells, line L-α2A
Sequence (P08913 whole entry): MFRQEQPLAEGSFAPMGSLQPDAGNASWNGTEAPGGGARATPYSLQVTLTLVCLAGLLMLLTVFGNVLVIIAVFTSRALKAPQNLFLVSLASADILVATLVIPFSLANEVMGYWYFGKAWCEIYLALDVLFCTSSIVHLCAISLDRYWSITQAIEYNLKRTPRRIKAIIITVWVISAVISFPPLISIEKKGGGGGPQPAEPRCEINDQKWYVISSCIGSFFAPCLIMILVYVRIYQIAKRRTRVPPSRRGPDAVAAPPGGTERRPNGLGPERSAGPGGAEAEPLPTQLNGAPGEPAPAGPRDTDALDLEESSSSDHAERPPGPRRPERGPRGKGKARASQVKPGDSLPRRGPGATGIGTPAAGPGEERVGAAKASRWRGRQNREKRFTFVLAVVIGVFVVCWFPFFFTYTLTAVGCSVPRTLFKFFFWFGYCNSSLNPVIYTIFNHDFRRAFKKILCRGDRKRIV
Experiment: Competition binding, [3H]rauwolscine, human α2A receptor
Settings: [3H]rauwolscine, human α2A receptor, LM(tk−) cells; read-out: pKi alpha-2 2a (converted)
Counter-ions that a name gives are not always drawn.
Would you kindly list Ki for each of these compounds?
One number for each entry, in nM.

Below, 5 compounds whose answers are already recorded.
CCC1=C(C(N)=O)C(c2ccc([N+](=O)[O-])cc2)C(C(=O)NCCCN2CCC(C#N)(c3ccccc3)CC2)=C(CC)N1 (single isomer, unassigned; (-)) [(−)-102] | 1910
CCC1=C(C(N)=O)C(c2ccc([N+](=O)[O-])cc2)C(C(=O)NCCCN2CCC(O)(c3ccccc3)CC2)=C(CC)N1 (centres unmarked) [Example 100, hydrochloride hydrate] | 794
CCC1=C(C(N)=O)C(c2ccc([N+](=O)[O-])cc2)C(C(=O)NCCCN2CCN(c3ccccc3)CC2)=C(CC)N1 (centres unmarked) [Example 104, hydrochloride hydrate] | 5.25
CCC1=C(C(N)=O)C(c2ccc([N+](=O)[O-])cc2)C(C(=O)NCCCN2CCC(C)(c3ccccc3)CC2)=C(CC)N1 (centres unmarked) [Example 106, hydrochloride hydrate] | 324
CNC(=O)C1=C(C)NC(C)=C(C(=O)NCCCN2CCC(O)(c3ccccc3)CC2)C1c1ccc([N+](=O)[O-])cc1 (centres unmarked) | 631

Below is a list of compounds. For each, state its recorded Ki.
1. COc1ccccc1N1CCN(CCCNC(=O)C2=C(C)NC(C)=C(C(N)=O)C2c2ccc([N+](=O)[O-])cc2)CC1 (centres unmarked)
2. COc1cccc(C2C(C(N)=O)=C(C)NC(C)=C2C(=O)NCCCN2CCC(c3ccccc3)(c3ccccc3)CC2)c1 (centres unmarked)
3. CCC1=C(C(=O)OCCC#N)C(c2ccc([N+](=O)[O-])cc2)C(C(=O)NCCCN2CCC(c3ccccc3)(c3ccccc3)CC2)=C(COCCN=[N+]=[N-])N1 (centres unmarked)

Reply |
1: 22.4; 2: 955; 3: 603

Go through the items and report each one's Ki.
1. CCC1=C(C(N)=O)C(c2ccc([N+](=O)[O-])cc2)C(C(=O)NCCCN2CCC(c3ccccc3)CC2)=C(CC)N1 (centres unmarked)
2. CCC1=C(C(N)=O)C(c2ccc([N+](=O)[O-])cc2)C(C(=O)NCCCN2CCC(C#N)(c3ccccc3)CC2)=C(CC)N1 (racemic) [(±)-102, hydrochloride hydrate]
3. CC1=C(C(N)=O)C(c2ccc(S(C)(=O)=O)cc2)C(C(=O)NCCCN2CCC(c3ccccc3)(c3ccccc3)CC2)=C(C)N1 (centres unmarked)
4. CCC1=C(C(=O)NCCCN2CCC(c3ccccc3)(c3ccccc3)CC2)C(c2ccc([N+](=O)[O-])cc2)C(C(N)=O)=C(COCCN=[N+]=[N-])N1 (centres unmarked)
5. CC1=C(C(=O)NCCCN2CCC(c3ccccc3)(c3ccccc3)CC2)C(c2ccc([N+](=O)[O-])cc2)C(C(=O)NC(C)C)=C(C)N1 (centres unmarked)
6. CCNC(=O)C1=C(COCCN=[N+]=[N-])NC(CC)=C(C(=O)NCCCN2CCC(c3ccccc3)(c3ccccc3)CC2)C1c1ccc([N+](=O)[O-])cc1 (centres unmarked)

Reply |
1. 363
2. 2880
3. 3980
4. 501
5. 316
6. 871
